Tested on: FIG-ROS murine cholangiocarcinoma tumor cells
ASSAY INFO: cells
CONDITIONS: Mus musculus, read-out: IC50 cell growth
OBSERVABLE: pIC50
Scale: pIC50 equals -log10([C]), with [C] in mol/L.

# pIC50 (compound: COc1cc2c(Oc3ccc(NC(=O)C4(C(=O)Nc5ccc(F)cc5)CC4)cc3F)ccnc2cc1OCCCN1CCOCC1 ) is 6.52

Data point: C[C@@H](Oc1cc(-c2cnn(C3CCNCC3)c2)cnc1N)c1c(Cl)ccc(F)c1Cl ; pIC50 = 6.16
